- test.name: Worst-case calculation, Application 1 yoghurt pot lid exposure scenario
- stated.conditions: product SBDEV980; 100% migration; 2.0 g/m^2 dry film
Measured Worst-case calculation as a percentage of SML (or restriction), Application 1, listed per entry for reference.

Reference set, count: 3
- O=C1NCCN1: 6.3 percentage of SML (or restriction)
- CCCCCCCC/C=C\CCCCCCCC(=O)OCC [0000111-62-6, Ethyl Oleate]: 9.45 percentage of SML (or restriction)
- c1ccc(-c2ccc(-c3nc(-c4ccc(-c5ccccc5)cc4)nc(-c4ccc(-c5ccccc5)cc4)n3)cc2)cc1: 0.1 percentage of SML (or restriction)

(Q) Need Worst-case calculation as a percentage of SML (or restriction), Application 1, item `O=C(O)c1ccc(-c2ccccc2)cc1`
(A) 2.8 percentage of SML (or restriction)

(Q) Look up Worst-case calculation as a percentage of SML (or restriction), Application 1: CCCC1OC(CCC)OC(CCC)O1 (stereo not drawn)
(A) 26.0 percentage of SML (or restriction)

###

- test.name: Worst-case calculation, Application 2 cheese packaging wrap exposure scenario
- stated.conditions: product SBDEV1287; 100% migration; 2.0 g/m^2 dry film
Counter-ions that a name gives are not always drawn.
Listed here: items and their measured Worst-case calculation as a percentage of SML (or restriction), Application 2.

- CCCCCCCC/C=C\CCCCCCCC(=O)OCC [0000111-62-6, Ethyl Oleate]: 32.68 percentage of SML (or restriction)
- CCCC1OC(CCC)OC(CCC)O1 (stereo not drawn): 97.9 percentage of SML (or restriction)
- O=C1NCCN1: 15.8 percentage of SML (or restriction)

(Q) Entry CCCCCCCC/C=C\CCCCCCCC(=O)N(CCO)CCO [0000093-83-4, N,N-Bis(2-hydroxyethyl) oleamide] has what Worst-case calculation as a percentage of SML (or restriction), Application 2?
(A) 97.9 percentage of SML (or restriction)

(Q) Which value of Worst-case calculation as a percentage of SML (or restriction), Application 2 has been reported for CCCCOC(=O)CC(O)(CC(=O)OCCCC)C(=O)OCCCC [0000077-94-1, Tributyl citrate] in the records?
(A) 76.01 percentage of SML (or restriction)

###

- test.name: Worst-case calculation (100% migration), standard EU Cube exposure model
- stated.conditions: product SBDEV976; 100% migration; 2.0 g/m^2 dry film
Structures can show the parent of a compound that is named as a salt.
Overview of recorded Worst-case calculation as a percentage of SML (or restriction), EU Cube for various molecules

Examples with answers:
* CCCCOC(=O)CC(O)(CC(=O)OCCCC)C(=O)OCCCC [0000077-94-1, Tributyl citrate] | 55.2 percentage of SML (or restriction)
* CCCC1OC(CCC)OC(CCC)O1 (centres unmarked) | 61 percentage of SML (or restriction)
* O=C1NCCN1 | 16 percentage of SML (or restriction)
* CCCCCCCC/C=C\CCCCCCCC(=O)OCC [0000111-62-6, Ethyl Oleate] | 24.0 percentage of SML (or restriction)

Proceed to the following item.
(Q) Fill blank: measured Worst-case calculation as a percentage of SML (or restriction), EU Cube of the molecule `c1ccc2ccccc2c1` is ____.
(A) 0.4 percentage of SML (or restriction)

###

- test.name: Worst-case calculation, Application 1 yoghurt pot lid exposure scenario
- stated.conditions: product SBDEV977; 100% migration; 2.0 g/m^2 dry film
Structures can show the parent of a compound that is named as a salt.
measured.quantity: Worst-case calculation as a percentage of SML (or restriction), Application 1

(Q) Give its Worst-case calculation as a percentage of SML (or restriction), Application 1 value. Item: `O=C1NCCN1`
(A) 5.9 percentage of SML (or restriction)

(Q) // Worst-case calculation as a percentage of SML (or restriction), Application 1 lookup, key: CCCC1OC(CCC)OC(CCC)O1 (stereo not drawn)
(A) 26.4 percentage of SML (or restriction)

(Q) What Worst-case calculation as a percentage of SML (or restriction), Application 1 value was documented for this compound, CCCCOC(=O)CC(O)(CC(=O)OCCCC)C(=O)OCCCC [0000077-94-1, Tributyl citrate] ?
(A) 20.9 percentage of SML (or restriction)

###

- test.name: Worst-case calculation (100% migration), standard EU Cube exposure model
- stated.conditions: product SBDEV1285; 100% migration; 2.0 g/m^2 dry film
Counter-ions that a name gives are not always drawn.
measured.quantity: Worst-case calculation as a percentage of SML (or restriction), EU Cube

Worked cases, Worst-case calculation as a percentage of SML (or restriction), EU Cube given:
* N#Cc1ccc(-c2ccccc2)cc1 [0002920-38-9, 4-Phenylbenzonitrile] | 5 percentage of SML (or restriction)
* c1ccc(-c2ccc(-c3nc(-c4ccc(-c5ccccc5)cc4)nc(-c4ccc(-c5ccccc5)cc4)n3)cc2)cc1 [0031274-51-8] | 0.3 percentage of SML (or restriction)
* O=Cc1ccc(Cl)cc1 [0000104-88-1, 4-Chlorobenzaldehyde] | 14 percentage of SML (or restriction)
* CCCC1OC(CCC)OC(CCC)O1 (stereo not drawn) [0002396-43-2, 2,4,6-tripropyl-1,3,5-Trioxane] | 67 percentage of SML (or restriction)

(Q) // query Worst-case calculation as a percentage of SML (or restriction), EU Cube value for entry O=C(O)c1ccc(-c2ccccc2)cc1 [0000092-92-2, 4-Phenylbenzoic Acid]
(A) 7 percentage of SML (or restriction)

(Q) Would you mind telling me what Worst-case calculation as a percentage of SML (or restriction), EU Cube value was observed for CCCCCCCC/C=C\CCCCCCCC(=O)OCC [0000111-62-6, Ethyl Oleate] ?
(A) 22.7 percentage of SML (or restriction)

(Q) Bench note: what Worst-case calculation as a percentage of SML (or restriction), EU Cube did O=C1NCCN1 [0000120-93-4, 2-Imidazolidinone] show?
(A) 12 percentage of SML (or restriction)

(Q) Give its Worst-case calculation as a percentage of SML (or restriction), EU Cube value. Item: NC(=O)c1ccc(-c2ccccc2)cc1 [0003815-20-1, 4-Phenylbenzamide]
(A) 230 percentage of SML (or restriction)

(Q) Please look up its Worst-case calculation as a percentage of SML (or restriction), EU Cube: CCCCOC(=O)CC(O)(CC(=O)OCCCC)C(=O)OCCCC [0000077-94-1, Tributyl citrate]
(A) 52.8 percentage of SML (or restriction)

###

- test.name: Worst-case calculation, Application 1 yoghurt pot lid exposure scenario
- stated.conditions: product SBDEV1284; 100% migration; 2.0 g/m^2 dry film
Counter-ions that a name gives are not always drawn.
Parameter Worst-case calculation as a percentage of SML (or restriction), Application 1: see the listing below.

Example entries begin here.
• CCCCOC(=O)CC(O)(CC(=O)OCCCC)C(=O)OCCCC [0000077-94-1, Tributyl citrate] = 20.73 percentage of SML (or restriction)
• O=C1NCCN1 = 4.3 percentage of SML (or restriction)
• CCCC1OC(CCC)OC(CCC)O1 (stereo not shown) = 26.0 percentage of SML (or restriction)

Next item in the queue.
(Q) Would you mind telling me what Worst-case calculation as a percentage of SML (or restriction), Application 1 value was observed for CCCCCCCC/C=C\CCCCCCCC(=O)OCC [0000111-62-6, Ethyl Oleate] ?
(A) 8.91 percentage of SML (or restriction)

###

As shown below, each of these compounds has a reported SML (or restriction) value.
- test.name: Specific migration limit (SML) from regulation or hazard assessment (TTC, VEGA QSAR, Cramer Class)
- stated.conditions: Source of SML or restriction: HA (internal hazard assessment)
// return numeric value only (unit: mg substance/kg food, not printed)

• CCCC1OC(CCC)OC(CCC)O1 (stereo not shown) [2,4,6-tripropyl-1,3,5-Trioxane] = 0.09
• N#Cc1ccc(-c2ccccc2)cc1 [4-Phenylbenzonitrile] = 0.09
• O=C(O)c1ccc(-c2ccccc2)cc1 [4-Phenylbenzoic Acid] = 0.09
• CCCCCCCC/C=C\CCCCCCCC(=O)OCC [Ethyl Oleate] = 0.09

(Q) I'd like to know its SML (or restriction). The compound in question is `c1ccc(-c2ccc(-c3nc(-c4ccc(-c5ccccc5)cc4)nc(-c4ccc(-c5ccccc5)cc4)n3)cc2)cc1`
(A) 5

(Q) Bench note: what SML (or restriction) did O=Cc1ccc(-c2ccccc2)cc1 [4-Phenylbenzaldehyde] show?
(A) 0.09

(Q) # lookup: SML (or restriction) of O=Cc1ccc(Cl)cc1 [4-Chlorobenzaldehyde]
(A) 0.09

(Q) For NC(=O)c1ccc(-c2ccccc2)cc1 [4-Phenylbenzamide] , what is its reported SML (or restriction)?
(A) 0.09

(Q) # query: SML (or restriction) of entry O=C1NCCN1 [2-Imidazolidinone]
(A) 4.98

(Q) # input compound: CCCOC(CC)OCCC [Propane, 1,1-dipropoxy-] ; wanted: its SML (or restriction)
(A) 0.09
